Tested on: PKAC-beta
Construct: gene PRKACB
Conditions: concentration: 1 μM, replicates: in singlicate; n = 1;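 further: KINOMEscan kinase panel screen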

{"columns": ["COMPOUND", "%Inh (%)"],
 "data": [
  ["COc1cc(Nc2nccc(N3CCC(NC(=O)Nc4ccc5c(c4)OCO5)C3)n2)cc(OC)c1OC (centres unmarked)", 0],
  ["COc1cccc(C2=C(Nc3cccc(O)c3)C(=O)NC2=O)c1", 0],
  ["O=C(Nc1n[nH]c2nc(-c3ccccc3O)ccc12)C1CC1", 0],
  ["Cl.O=C(Nc1ccc(Oc2ccc3[nH]c(NC(=O)c4ccco4)nc3c2)cc1)Nc1cc(C(F)(F)F)ccc1F", 8],
  ["CN(C)CCNS(=O)(=O)c1ccc(-c2ccnc3[nH]ccc23)cc1", 97.7],
  ["CCNc1nccc(-c2c(-c3ccc(F)cc3)ncn2C2CCN(C)CC2)n1", 0],
  ["Cc1ccc(NC(=O)c2ccc(Cl)c(Cl)c2)cc1-c1ccc(C(=O)Nc2ccncc2)cc1", 7],
  ["COc1ccc(C)c(Nc2ccnc(Nc3ccc(-c4cnc[nH]4)cc3)n2)c1.Cl", 22],
  ["O=C1NC(=O)C(c2ccccc2Cl)=C1Nc1cccc(Cl)c1", 0],
  ["CN(C)CCOc1ccc(-c2cc(-c3ccc(Cl)c(O)c3)c(-c3ccncc3)[nH]2)cc1.Cl.Cl", 10],
  ["Cc1ccc(-c2ccc3occ(-c4ccc(S(C)=O)cc4)c3c2)nn1 (centres unmarked)", 0]
]}

###

Test system: JAK2(JH1domain-catalytic)
Details: concentration: 1 μM, replicates: in singlicate; n = 1
# reported %Inh; entries follow
OBSERVATION TYPE: %Inh (%)

{"columns": ["COMPOUND", "UOM", "REPORTED"],
 "data": [
  ["N#CC1(c2cccc(C(=O)Nc3cccc(Oc4ccc5nc(NC(=O)C6CC6)sc5n4)c3)c2)CC1", "%", 0],
  ["CCNc1nccc(-c2c(-c3ccc(F)cc3)ncn2C2CCN(C)CC2)n1", "%", 0],
  ["Cl.Cl.NC(CNC(=O)c1cc(Br)c(-c2ccnc3[nH]ccc23)s1)c1ccccc1 (stereo not drawn)", "%", 94.3],
  ["CN(c1ccc2c(c1)nc(NCc1ccccc1)n2C)c1ccnc(Nc2ccc(CS(C)(=O)=O)cc2)n1.Cl", "%", 60],
  ["COC(=O)Nc1nc2ccc(Oc3ccc(NC(=O)Nc4cc(C(F)(F)F)ccc4F)cc3)cc2[nH]1.Cl", "%", 55],
  ["COc1cccc2c(-c3ccncc3)c(-c3ccc(F)cc3)nn12", "%", 11],
  ["Nc1ncnc2scc(-c3ccc(NC(=O)Cc4cc(F)ccc4F)cc3)c12.O=C(O)C(F)(F)F", "%", 27],
  ["Cc1ccc(Nc2ccnc(Nc3ccc(C)c(F)c3)n2)cc1O.Cl", "%", 48],
  ["O=C1NC(=O)C(c2ccccc2Cl)=C1Nc1cccc(Cl)c1", "%", 24],
  ["CCn1c(-c2nonc2N)nc2c(-c3ccccc3)ncc(OCCCN)c21.O=C(O)C(F)(F)F.O=C(O)C(F)(F)F", "%", 3],
  ["Cc1cc(-c2c(-c3ccc(F)cc3)ncn2CCCN2CCOCC2)nc(N)n1", "%", 16],
  ["Cc1ccccc1CC(=O)N1CCc2cc(-c3cn(C)c4ncnc(N)c34)ccc21", "%", 26]
]}

Recorded values, source paper PMC5540273.
